The entries below come with measured pIC50 values attached.
tested on: KM12 wild type colon carcinoma cell line harboring the TPM3-NTRK1 fusion protein; assay: NTRK wild type cellular assay (CellTiter-Glo growth inhibition); type: cell-based; conditions: Homo sapiens, KM12, 72 h, 72 hr, CellTiter-Glo; read-out: KM12 (WT) IC50
pIC50: −log10 of the molar value.

Completed entries (count: 3):
Exam item: For `O=C(NCc1cc(F)ccc1F)c1n[nH]c2ncnc(N[C@@H]3CCC[C@H]3O)c12` , write its pIC50.
Marked response: 7.00 to 8.00

Exam item: Provide pIC50 value for the following compound: `O=C(c1n[nH]c2ncnc(N[C@@H]3CCOC[C@H]3O)c12)N1C[C@@H](F)C[C@@H]1c1cc(Cl)ccc1F`
Marked response: 7.00 to 8.00

Exam item: Name the recorded pIC50 of the compound listed here: `O=C(c1n[nH]c2ncnc(N[C@@H]3CCOC[C@H]3O)c12)N1C[C@@H](F)C[C@@H]1c1cccc(F)c1`
Marked response: 7.00 to 8.00

New cases:
Exam item: Give the reported pIC50 for this compound. `O=C(c1n[nH]c2ncnc(N[C@@H]3CCC[C@@H](O)[C@H]3O)c12)N1C[C@@H](F)C[C@@H]1c1cc(Cl)ccc1F`
Marked response: > 8.00

Source: patent US11046697B2
